Biological target: WDR38
Experiment: pooled miR-30 sensor sort-seq; sequence = guide strand; note: reference of the scale not given here
Details: shRNA
Known sensor-assay potency score (higher = more potent) of a selection of sequences
QUANTITY NAME: sensor-assay potency score (higher = more potent)

[
  {
    "RESIDUE SEQUENCE": "TTTCACTCTCCGCACGGCCAGC",
    "RECORDED NUMBER": -1.51
  },
  {
    "RESIDUE SEQUENCE": "TGACCGTCTCCACACTCCGTTG",
    "RECORDED NUMBER": -1.74
  },
  {
    "RESIDUE SEQUENCE": "TGAGCCTGTGAGCAGCATCTGG",
    "RECORDED NUMBER": -1.58
  },
  {
    "RESIDUE SEQUENCE": "TTCAGTTGGATAAGCAGGCTGC",
    "RECORDED NUMBER": -0.0722
  },
  {
    "RESIDUE SEQUENCE": "TTCTGAGCCTGTGAGCAGCATC",
    "RECORDED NUMBER": -1.23
  },
  {
    "RESIDUE SEQUENCE": "TTTGACGTCTAGTCTGATCGGC",
    "RECORDED NUMBER": 1.06
  },
  {
    "RESIDUE SEQUENCE": "ATATTTGACGTCTAGTCTGATC",
    "RECORDED NUMBER": -0.981
  }
]

====

Known sensor-assay potency score (higher = more potent) of a selection of sequences
Target: TNPO2
Assay: pooled miR-30 sensor sort-seq; sequence = guide strand
Settings: shRNA
QUANTITY NAME: sensor-assay potency score (higher = more potent)

[
  {
    "RESIDUE SEQUENCE": "AATCTTATAAAACATGTCCCGA",
    "RECORDED NUMBER": -0.983
  },
  {
    "RESIDUE SEQUENCE": "TTTGAGCAGCTGCAGGACCTGC",
    "RECORDED NUMBER": -1.11
  },
  {
    "RESIDUE SEQUENCE": "TCATCTTCTGACTTGAGTCTGG",
    "RECORDED NUMBER": 0.0435
  },
  {
    "RESIDUE SEQUENCE": "AATGTTGTTGAGACACTCCTGT",
    "RECORDED NUMBER": 0.856
  },
  {
    "RESIDUE SEQUENCE": "TTGTCTTCGTCCTTGAGCTCAT",
    "RECORDED NUMBER": 0.165
  },
  {
    "RESIDUE SEQUENCE": "TTTTCCAGCAGTGTCTTGGGTG",
    "RECORDED NUMBER": -0.0437
  },
  {
    "RESIDUE SEQUENCE": "TGAGTCTTTGAGCAGCTGCAGG",
    "RECORDED NUMBER": -1.5
  },
  {
    "RESIDUE SEQUENCE": "TTGAAGAACTGCAGGAACTTGG",
    "RECORDED NUMBER": -0.371
  }
]

====

Biological target: SRSF11
Test: pooled miR-30 sensor sort-seq; sequence = guide strand
Conditions: shRNA
Label scheme for sensor-assay potency score (higher = more potent): lower than 0.6 is rule not met, 0.6 and above is rule met.

[
  {
    "RESIDUE SEQUENCE": "TTGCACTTCTAGAACGTCTGGC",
    "ASSIGNED LABEL": "rule met"
  },
  {
    "RESIDUE SEQUENCE": "TCTTCTTGCTTGTTGATCGTTC",
    "ASSIGNED LABEL": "rule not met"
  },
  {
    "RESIDUE SEQUENCE": "TTGATCTTGAATGCCTTCTTTT",
    "ASSIGNED LABEL": "rule not met"
  },
  {
    "RESIDUE SEQUENCE": "TTAGGGACTGTGCTTCTCGTAC",
    "ASSIGNED LABEL": "rule not met"
  },
  {
    "RESIDUE SEQUENCE": "TTCCTCTTCATCATAATCCCGT",
    "ASSIGNED LABEL": "rule not met"
  },
  {
    "RESIDUE SEQUENCE": "TTTGTCTTTATCTTTCTTCTTC",
    "ASSIGNED LABEL": "rule not met"
  }
]
